Please find below IC50 data on UniProt:P24557 compiled from the literature.
Sequence (P24557 whole entry): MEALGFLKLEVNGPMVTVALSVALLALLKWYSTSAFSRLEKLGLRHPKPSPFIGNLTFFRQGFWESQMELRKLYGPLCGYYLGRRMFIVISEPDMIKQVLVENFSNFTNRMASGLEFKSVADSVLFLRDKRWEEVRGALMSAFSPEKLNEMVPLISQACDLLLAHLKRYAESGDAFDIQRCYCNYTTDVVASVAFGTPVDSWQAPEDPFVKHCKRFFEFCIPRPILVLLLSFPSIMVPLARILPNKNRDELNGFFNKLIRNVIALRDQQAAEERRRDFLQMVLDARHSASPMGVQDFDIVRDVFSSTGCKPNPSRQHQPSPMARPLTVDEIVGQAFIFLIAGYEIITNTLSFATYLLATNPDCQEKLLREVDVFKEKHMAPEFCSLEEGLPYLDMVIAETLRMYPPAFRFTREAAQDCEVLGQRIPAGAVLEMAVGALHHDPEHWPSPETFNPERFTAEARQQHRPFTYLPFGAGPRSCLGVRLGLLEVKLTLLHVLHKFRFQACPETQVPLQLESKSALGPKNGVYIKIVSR
Numbers only, in nM.

Field: example entries. Status: answers known.
• CC(C)c1[nH]c2ccccc2c1Cn1ccnc1 = 17
• Clc1ccc(-c2[nH]c3ccccc3c2Cn2ccnc2)cc1 = 110
• O=C(c1ccccc1)n1cc(Cn2ccnc2)c2ccccc21 = 2

List the reported IC50 of each compound below.
1. Cc1c(-c2cccnc2)n(CCCCCC(N)=O)c2ccc(Cl)cc12
2. Cn1c(-c2cccnc2)c(CCCCCC(=O)O)c2ccccc21

1: 10; 2: 2.2
